- Test Method Notes: Hematic levels of UDCA and glyco UDCA after oral administration of 200 mg UDCA aqueous solution to three healthy men (Example VI)
- Type: in vivo, human
- Condition: male, human, plasma, po, 200 mg, oral, 200 mg UDCA solution of this invention, 0.5 h; read-out: Plasma concentration, individual men #1-#3

[
  {
    "Smiles Structure": "C[C@H](CCC(=O)O)[C@H]1CC[C@H]2[C@@H]3[C@@H](O)C[C@@H]4C[C@H](O)CC[C@]4(C)[C@H]3CC[C@]12C",
    "concentration at 0.5 h (ng/mL)": 4450
  }
]

====

- Test Method Notes: Hematic levels of UDCA and glyco UDCA after oral administration of 200 mg UDCA aqueous solution to three healthy men (Example VI)
- Type: in vivo, human
- Condition: male, human, in vivo, po, 200 mg, Cmax, mean

[
  {
    "Compound": "C[C@H](CCC(=O)NCC(=O)O)[C@H]1CC[C@H]2[C@@H]3[C@@H](O)C[C@@H]4C[C@H](O)CC[C@]4(C)[C@H]3CC[C@]12C [GUDCA, glycoursodeoxycholic acid]",
    "Cmax (ng/mL)": 1600
  }
]
